Test: Plasma pharmacokinetics of bortezomib and docetaxel given in combination
Assay type: in vivo, patients
Conditions: human, plasma, intravenous, 1 mg, bortezomib 1.0 mg m^−2 (n=5), day 11; read-out: AUC0–t, mean (%CV)
MEASUREMENT KIND: AUC(0-t) (ng·h/mL)
Give bare numbers, in ng·h/mL.

In: I would be grateful if you could share the reported AUC(0-t) for CC(C)C[C@H](NC(=O)[C@H](Cc1ccccc1)NC(=O)c1cnccn1)B(O)O .
Out: 112

====

Experiment: Plasma pharmacokinetics of bortezomib and docetaxel given in combination
Format: in vivo, patients
Conditions: human, plasma, intravenous, 1.5 mg, bortezomib 1.5 mg m^−2 (n=8), day 1, with docetaxel; read-out: Vz, mean (%CV)
MEASUREMENT KIND: Vd (L)
Answers are plain numbers, in L.

In: Recorded Vd of CC(C)C[C@H](NC(=O)[C@H](Cc1ccccc1)NC(=O)c1cnccn1)B(O)O [Bortezomib] , please.
Out: 282

====

Test: Plasma pharmacokinetics of bortezomib and docetaxel given in combination
Type: in vivo, patients
Conditions: human, plasma, intravenous, 1 mg, bortezomib 1.0 mg m^−2 (n=5), day 1, with docetaxel; read-out: AUC0–t, mean (%CV)
MEASUREMENT KIND: AUC(0-t) (ng·h/mL)
Numbers only, in ng·h/mL.

In: Item under review: CC(C)C[C@H](NC(=O)[C@H](Cc1ccccc1)NC(=O)c1cnccn1)B(O)O [Bortezomib] . Reported AUC(0-t)?
Out: 43

====

Assay: Plasma pharmacokinetics of bortezomib and docetaxel given in combination
Format: in vivo, patients
Details: human, plasma, intravenous, 1.5 mg, bortezomib 1.5 mg m^−2 (n=8), day 1, with docetaxel; read-out: Vss, mean (%CV)
MEASUREMENT KIND: Vd
I'd appreciate it if you wrote the number followed by its unit.

In: What does the record list as Vd for CC(C)C[C@H](NC(=O)[C@H](Cc1ccccc1)NC(=O)c1cnccn1)B(O)O [Bortezomib] ?
Out: 209 L

====

Test: Plasma pharmacokinetics of bortezomib and docetaxel given in combination
Assay type: in vivo, patients
Conditions: human, plasma, intravenous, 100 mg, docetaxel 100 mg m^−2 (n=6), day 1, with bortezomib; read-out: AUC0–t, mean (%CV)
MEASUREMENT KIND: AUC(0-t) (ng·h/mL)
Give bare numbers, in ng·h/mL.

In: # get_value(readout='AUC(0-t)', item= CC(=O)O[C@@]12CO[C@@H]1C[C@H](O)[C@@]1(C)C(=O)[C@H](O)C3=C(C)[C@@H](OC(=O)[C@H](O)[C@@H](NC(=O)OC(C)(C)C)c4ccccc4)C[C@@](O)([C@@H](OC(=O)c4ccccc4)[C@H]21)C3(C)C )
Out: 2550

====

Assay: Plasma pharmacokinetics of bortezomib and docetaxel given in combination
Assay type: in vivo, patients
Details: human, plasma, intravenous, 1.3 mg, bortezomib 1.3 mg m^−2 (n=3), day 11; read-out: AUC0–t, mean (%CV)
MEASUREMENT KIND: AUC(0-t) (ng·h/mL)
Numbers only, in ng·h/mL.

In: I'd like to know its AUC(0-t). The compound in question is CC(C)C[C@H](NC(=O)[C@H](Cc1ccccc1)NC(=O)c1cnccn1)B(O)O [Bortezomib]
Out: 90.5

====

Assay: Plasma pharmacokinetics of bortezomib and docetaxel given in combination
Assay type: in vivo, patients
Conditions: human, plasma, intravenous, 75 mg, docetaxel 75 mg m^−2 (n=7), day 1, with bortezomib; read-out: T½,z, mean (%CV) (converted)
MEASUREMENT KIND: half-life (h)
One number for each entry, in h.

In: What does the record list as half-life for CC(=O)O[C@@]12CO[C@@H]1C[C@H](O)[C@@]1(C)C(=O)[C@H](O)C3=C(C)[C@@H](OC(=O)[C@H](O)[C@@H](NC(=O)OC(C)(C)C)c4ccccc4)C[C@@](O)([C@@H](OC(=O)c4ccccc4)[C@H]21)C3(C)C ?
Out: 10.4
